B1: FAM46D (parent)
chain: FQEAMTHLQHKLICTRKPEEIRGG

Variants of: B1
Assay: protein stability index of a GFP-peptide fusion (GPS, HEK-293T) (PSI 1-6); higher = more stable;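 note: lentivirally expressed fusions sorted by FACS into six bins by GFP to DsRed ratio, PSI derived from sequencing read proportions per bin multiplied by bin number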
Settings: c terminus: a fixed tail appended
Please respond with reported protein stability index for every item in the list.
Give bare numbers.

# mutation-id, protein stability index
measured = [
    ("C14Y", 2.45),
    ("Q2F", 1.6),
    ("K11F", 2.16),
]

Provide each entry's protein stability index from the list below.
1. F1G
2. E20I

4.4
1.77

Provide each entry's protein stability index from the list below.
1. H10R
2. E20S
3. I21Q
4. T6N

1: 2.71; 2: 2.33; 3: 3.05; 4: 2.11
